Target System: Oxysterols receptor LXR-beta (Homo sapiens)
Sequence (P55055 whole entry): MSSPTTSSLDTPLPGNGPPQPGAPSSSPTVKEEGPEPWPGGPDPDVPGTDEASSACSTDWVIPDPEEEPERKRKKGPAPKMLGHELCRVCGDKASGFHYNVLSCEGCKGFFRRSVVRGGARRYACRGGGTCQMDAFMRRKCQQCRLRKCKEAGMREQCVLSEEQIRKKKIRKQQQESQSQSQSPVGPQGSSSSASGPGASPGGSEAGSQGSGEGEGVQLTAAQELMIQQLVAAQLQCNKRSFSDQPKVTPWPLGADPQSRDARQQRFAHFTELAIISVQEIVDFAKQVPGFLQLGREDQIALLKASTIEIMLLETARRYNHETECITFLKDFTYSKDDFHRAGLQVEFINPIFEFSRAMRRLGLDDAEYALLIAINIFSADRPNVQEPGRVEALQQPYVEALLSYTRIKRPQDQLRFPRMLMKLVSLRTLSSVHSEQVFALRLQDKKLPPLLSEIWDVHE
Measurement Notes: Agonist activity at LXRbeta LBD by HTRF cofactor peptide recruitment assay
Type: functional
Assay Readout: pEC50
pEC50 here is simply -log10 of the concentration when that concentration is written in mol/L.

Compound	pEC50
CC(C)(C)OC(=O)n1c(-c2ccc3c(c2)CC(NC(=O)Nc2ccccc2)C3)cc2ccccc21 (stereo not drawn)	5.82
CC(C)CCOC(=O)n1c(-c2ccc3c(c2)CC(NS(=O)(=O)c2ccccc2)C3)cc2ccccc21 (stereo not drawn)	5.89
CCc1ccc(S(=O)(=O)NC2Cc3ccc(-c4cc5ccccc5n4C(=O)OC(C)(C)C)cc3C2)cc1 (stereo not drawn)	6.19
CCCCCC(=O)n1c(-c2ccc3c(c2)CC(NS(=O)(=O)c2ccccc2)C3)cc2ccccc21 (stereo not drawn)	5.68
CC(C)(C)OC(=O)n1c(-c2ccc3c(c2)CC(NS(=O)(=O)c2ccccc2)C3)cc2cc(C#N)ccc21 (stereo not drawn)	4.59

# input Need pEC50, item COc1ccc2cc(-c3ccc4c(c3)CC(NS(=O)(=O)c3ccccc3)C4)n(C(=O)OC(C)(C)C)c2c1 (stereo not drawn)
# output 5.80

# input GET /values?readout=pEC50&item= CC(C)(C)OC(=O)n1c(-c2ccc3c(c2)CC(NS(=O)(=O)c2ccc(C(F)(F)F)cc2)C3)cc2ccccc21 (stereo not drawn)
# output 6.14

# input For Cc1ccccc1S(=O)(=O)NC1Cc2ccc(-c3cc4ccccc4n3C(=O)OC(C)(C)C)cc2C1 (stereo not drawn) , what is its reported pEC50?
# output 6.70

Where do the numbers come from? From ChEMBL document CHEMBL1139922.
